- Test system: NCI-H460 lung
- protocol_summary: NCI tumour cell line growth inhibition, 48 h
endpoint_name: TGI (µM)
One number for each entry, in µM.

INSERT INTO measurements (structure_string, unit_abbrev, obs_value) VALUES
  ('CCN(CC)CCNc1ccc(N=Nc2cnc3ccccc3c2)c2ccccc12', 'µM', 3.18);

Kindly consider the entry below.
Reported TGI, compound `CC(C)c1ccc(C(c2c(O)c3ccccc3oc2=O)c2c(O)c3ccccc3oc2=O)cc1` : ____
37.6

----------
- Test system: HS 578T breast
- protocol_summary: NCI tumour cell line growth inhibition, 48 h; in the data active = GI50 below about 0.43 µM; inactive = the rest
// one of class 1 = active, class 0 = inactive, no free text

Known results for molecules:
INSERT INTO measurements (molecule, cat) VALUES
  ('COc1ccc2c(c1)C(=O)/C(=C/c1cccc(OCC(=O)c3ccc([N+](=O)[O-])cc3)c1)CO2', 'class 0'),
  ('CN(CO)c1nc(N(C)CO)nc(N(C)CO)n1', 'class 0'),
  ('CC[C@H](C)C(=O)O[C@H]1CCC=C2C=C[C@H](C)[C@H](CC[C@@H]3C[C@@H](O)CC(=O)O3)[C@H]21', 'class 0');

Which outcome did this test record for the molecule `Cc1nccc2c3ccc(OCc4cn(-c5ccc(Br)cc5)nn4)cc3n(CCCc3ccccc3)c12` ?
class 0

----------
- Test system: SF-268 CNS
- protocol_summary: NCI tumour cell line growth inhibition, 48 h
I'd appreciate it if you could supply TGI values for the items below.

INSERT INTO results (molecule, obs_value) VALUES
  ('Cc1ccc(-c2nc3ccccc3c(=O)n2NC2OC(CO)C(O)C(O)C2O)cc1 (stereo not given)', '> 100 µM'),
  ('CC(=O)OC1(C)CC(C)C(=O)C(C(O)CC2CC(=O)NC(=O)C2)C1 (stereo not given)', '1.42 µM'),
  ('Oc1c(Cl)c(Cl)c(O)c(-c2cnc(-c3ncc(-c4c(O)c(Cl)c(Cl)c(O)c4Cl)s3)s2)c1Cl', '55.3 µM'),
  ('CC(/C=C1\CCC(CN(C)C)C1=O)c1cccc(Br)c1 (stereo not given)', '43.7 µM'),
  ('CCn1c(=O)c2c3ccc(O)cc3[nH]c2c2ccc(O)cc21', '> 100 µM'),
  ('O=C(O)c1ccc(Nc2nc3ccc(C(F)(F)F)cc3nc2-c2ccccc2)cc1', '> 100 µM'),
  ('CC1(C)C=C(N2CCN(C3=CC(C)(C)NC(C)(C)C3)CC2)CC(C)(C)N1', '> 100 µM'),
  ('CC(=O)c1ccc(Nc2nc3ccccc3c3occc23)cc1', '75.7 µM'),
  ('CCc1cc2c(Nc3ccccc3)c3c(nc2s1)CCCC3', '> 100 µM'),
  ('N#Cc1ccc(C(=O)c2cnn(-c3ccc(F)cc3)c2N)cc1', '> 25 µM');

For the 7 molecules below, give their TGI values.
1. CCCCCCc1cc2cc(-c3cn4ccccc4n3)c(=O)oc2cc1O
2. CC[C@H](C)[C@H](NC(=O)[C@H]1CCCCN1C)C(=O)N(C)[C@H](C[C@@H](OC(C)=O)c1nc(C(=O)NC23C4C5C2C2C3C4C52C(=O)OC)cs1)C(C)C (stereo not given in full)
3. CC(C)(C)c1cc(OCc2n[nH]c(=S)n2N)c(Cl)cc1OCc1n[nH]c(=S)n1N
4. CN(C)c1ccc(/C=N/n2c(CCCCc3n[nH]c(=S)n3/N=C/c3ccc(N(C)C)cc3)n[nH]c2=S)cc1
5. COc1ccc(C(=O)Nc2ccn(CCOC(=O)c3ccc(OC)cc3)c(=O)n2)cc1
6. O=c1[nH][nH]c(=O)c2c(O)c(-c3ccccc3)ncc12
7. CC(=O)O[C@H]1C(=O)[C@@]2(C)[C@H]([C@H](OC(=O)c3ccccc3)[C@]3(O)C[C@H](OC(=O)[C@H](O)[C@@H](NC(=O)OC(C)(C)C)c4ccco4)C(C)=C1C3(C)C)[C@]1(OC(C)=O)CO[C@@H]1C[C@@H]2O

["6.94 µM", "> 25 µM", "> 100 µM", "> 100 µM", "> 100 µM", "> 1000 µM", "> 50 µM"]

For the 5 molecules below, give their TGI values.
1. Cc1nccc2c3ccc(OCc4cn(-c5ccc(Br)cc5)nn4)cc3n(CCCc3ccccc3)c12
2. COc1ccc2nc3c([N+](=O)[O-])ccc4c3c(c2c1)N=CN4CCN(C)C
3. Fc1ccc(-c2c(-c3ccncc3)[nH]c3cccnc23)cc1
4. C[C@@]12C[C@@H](c3ccccc3O1)N1CCCSC1=N2
5. CC(=O)OC(C)(C)C[N+](=O)[O-]

1: 5.85 µM; 2: 19.6 µM; 3: > 25 µM; 4: > 100 µM; 5: > 100 µM
